- SYSTEM_UNDER_TEST: human RIP1 kinase domain (2-375) (Homo sapiens (Human), UniProt Q13546)
- Sequence (Q13546 2-375): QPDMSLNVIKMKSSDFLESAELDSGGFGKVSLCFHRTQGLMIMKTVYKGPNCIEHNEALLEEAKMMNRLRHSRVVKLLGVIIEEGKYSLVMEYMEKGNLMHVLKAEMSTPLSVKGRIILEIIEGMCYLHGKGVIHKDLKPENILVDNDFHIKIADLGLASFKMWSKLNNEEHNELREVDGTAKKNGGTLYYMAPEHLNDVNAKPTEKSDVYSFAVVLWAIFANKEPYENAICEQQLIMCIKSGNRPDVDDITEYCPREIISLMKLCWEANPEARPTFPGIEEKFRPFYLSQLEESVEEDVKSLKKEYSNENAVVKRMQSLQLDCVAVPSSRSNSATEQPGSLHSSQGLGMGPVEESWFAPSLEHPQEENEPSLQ
- TEST_SUMMARY: biochemical
- Format: biochemical
- CONDITION_SUMMARY: human RIP1 kinase domain (2-375), 50 uM ATP, 2 hours incubation, Transcreener ADP assay; read-out: RIP1 Ki
pKi: −log10 of the molar value.
PROPERTY: pKi

# COMPOUND, pKi
rows = [
    ("CN1C(=O)[C@@H](NC(=O)c2n[nH]c3ccc(Cl)nc23)COc2ccccc21", 7.29),
    ("CN1C(=O)[C@@H](NC(=O)c2nnn3c2C[C@@H](C(F)(F)F)CC3)COc2ccccc21", 6.90),
]

a. CN1C(=O)C(NC(=O)c2n[nH]c3c2C[C@@H](C(F)(F)F)CC3)CCn2ccnc21 (stereo partly shown)
b. CN1C(=O)C(NC(=O)c2nnc(Cc3ccccc3)[nH]2)CCn2nc3c(c21)CS(=O)(=O)C3 (stereo not shown)
c. O=C(N[C@H]1COc2cc(F)cc(F)c2NC1=O)c1n[nH]c2c1C[C@@H](C(F)(F)F)CC2 (single isomer, unassigned)
d. CN1C(=O)C(NC(=O)c2ncn(Cc3ccccc3)n2)CCCn2nc(C3CC3)cc21 (stereo not shown)
e. CN1C(=O)[C@@H](NC(=O)c2nnc(Cc3ccc(F)cc3)[nH]2)CCn2nccc21
Arrange the 5 compounds by rising pKi, starting with the smallest. I would appreciate it if you listed the labels in the requested order.
a, b, d, e, c
(a: 5.85, b: 6.26, d: 6.83, e: 7.15, c: 7.68)

----------
- SYSTEM_UNDER_TEST: human RIP1 kinase domain (2-375) (Homo sapiens (Human), UniProt Q13546)
- TEST_SUMMARY: biochemical
- Assay type: biochemical
- CONDITION_SUMMARY: human RIP1 kinase domain (2-375), Transcreener ADP assay, 50 uM ATP, 2 hours incubation; read-out: RIP1 Ki
PROPERTY: Ki (nM)

# COMPOUND, SYSTEM_UNDER_TEST, QUANTITY_UNIT, TEST_VALUE
records = [
    ("CC[C@]1(C)OCc2cnc(C(=O)N[C@H]3COc4cc(F)cc(F)c4NC3=O)cc21 [Example 243]", "human RIP1 kinase domain (2-375) (Homo sapiens (Human), UniProt Q13546)", "nM", 270),
    ("Cc1ncn2c1N(C)C(=O)C(NC(=O)c1n[nH]c(Cc3ccccc3)n1)CC2 (centres unmarked) [Example 226]", "human RIP1 kinase domain (2-375) (Homo sapiens (Human), UniProt Q13546)", "nM", 183),
    ("Cc1cc2n(n1)CC[C@H](NC(=O)c1ncn(C(C)c3ccc(F)cc3)n1)C(=O)N2C (some centres unmarked) [Example 270]", "human RIP1 kinase domain (2-375) (Homo sapiens (Human), UniProt Q13546)", "nM", 88.5),
    ("CN1C(=O)[C@H](NC(=O)c2nnc(Cc3ccccc3)[nH]2)CCn2nc(C3CC3(F)F)cc21 (some centres unmarked) [Example 286]", "human RIP1 kinase domain (2-375) (Homo sapiens (Human), UniProt Q13546)", "nM", 92.4),
    ("CN1C(=O)C(NC(=O)c2ncn(CC3CCC3)n2)CCn2nc(C3CC3)cc21 (centres unmarked) [Example 256]", "human RIP1 kinase domain (2-375) (Homo sapiens (Human), UniProt Q13546)", "nM", 210),
]

P. Cc1nn2c(c1C)N(C)C(=O)[C@@H](NC(=O)c1nnc(Cc3ccc(F)cc3)[nH]1)CC2 [Example 330]
Q. CN1C(=O)[C@@H](NC(=O)c2ncn(Cc3ccc(F)cc3)n2)CCn2nc([C@@H]3CC3(F)F)cc21 [Example 323]
Larger number for Ki: P , or Q ? Return value: the label identifying the chosen record.
P
